Record form. Attribute: Overall association constant β21 for the 2:1 host:guest complex. Fill in for each entry.
test: 1H NMR titration chloride binding studies; details: calculated by multiplying K 11 and K 21
Answers are plain numbers, in M⁻¹.

Solved entries:
CCCCCc1cc(/N=C/c2[nH]c3ccccc3c2C)c2[nH]ccc2c1 36500
CCCCCc1cc(/N=C/c2[nH]c(C)cc2C)c2[nH]ccc2c1 333000
CCCc1cc2cc(C)cc(/N=C/c3[nH]c(C)cc3C)c2[nH]1 468000
CCCCCc1cc2cc(C)cc(/N=C/c3[nH]c(C)cc3C)c2[nH]1 1.18e+06
CCCCCc1cc2cc(C)cc(/N=C/c3[nH]c4ccccc4c3C)c2[nH]1 35500

Hey, can you go through the list below and give me Overall association constant β21 for the 2:1 host:guest complex for every item?
1. CCCCCc1c(C)[nH]c(/C=N/c2cc(C)cc3cc[nH]c23)c1C
2. CCCCCc1cc2cc(C(F)(F)F)cc(/N=C/c3[nH]c(C)cc3C)c2[nH]1
3. CCCCCc1cc2cc(C)cc(/N=C/c3[nH]c(C)c(CCCCC)c3C)c2[nH]1

4630
393000
172000

* * *

test: pKa by UV spectrophotometric titration in aqueous solution; format: physicochemical; conditions: apparent pKa, hexafluorophosphate buffered DMSO:water 50:50, 25 °C
Classify by measured pK a (aq): Condition met if it is equal to or exceeds 6, Condition not met if it is smaller.

CCCCCc1cc(/N=C/c2[nH]c3ccccc3c2C)c2[nH]ccc2c1 Condition not met
CCCCCc1cc2cc(C)cc(/N=C/c3[nH]c4ccccc4c3C)c2[nH]1 Condition met
CCCCCc1cc(/N=C/c2[nH]c(C)cc2C)c2[nH]ccc2c1 Condition met
CCCCCc1c(C)[nH]c(/C=N/c2cc(C)cc3cc[nH]c23)c1C Condition met

Turning now to a further compound:
Evaluate CCCc1cc2cc(C)cc(/N=C/c3[nH]c(C)cc3C)c2[nH]1 : pK a (aq) at minimum 6? Condition met

* * *

test: 1H NMR titration chloride binding studies; settings: protonated perenosin, TBA-Cl, DMSO-d6/0.5% H2O, 298 K, 2:1 binding model
# if measured Association constant of Cl^− in the presence of HPF6 (1 equiv.), 2:1, K 11 < 200 M⁻¹: T  # else: F

# count of solved cases: 5
molecule	group
CCCc1cc2cc(C)cc(/N=C/c3[nH]c(C)cc3C)c2[nH]1 [Perenosin 4]	F
CCCCCc1cc2cc(C)cc(/N=C/c3[nH]c4ccccc4c3C)c2[nH]1 [Perenosin 8]	T
CCCCCc1cc2cc(C)cc(/N=C/c3[nH]c(C)cc3C)c2[nH]1 [Perenosin 2]	F
CCCCCc1cc(/N=C/c2[nH]c(C)cc2C)c2[nH]ccc2c1 [Perenosin 1d]	F
CCCCCc1cc2cc(C(F)(F)F)cc(/N=C/c3[nH]c(C)cc3C)c2[nH]1 [Perenosin 3]	T

I wonder whether CCCCCc1c(C)[nH]c(/C=N/c2cc(C)cc3cc[nH]c23)c1C [Perenosin 5] has Association constant of Cl^− in the presence of HPF6 (1 equiv.), 2:1, K 11 below 200 M⁻¹. Can you tell? F

Check CCCCCc1cc2cc(C)cc(/N=C/c3[nH]c(C)c(CCCCC)c3C)c2[nH]1 [Perenosin 6] too. F

Check CCCCCc1cc(/N=C/c2[nH]c3ccccc3c2C)c2[nH]ccc2c1 [Perenosin 7] too. T

* * *

Record form. Attribute: Association constant of Cl^− in the presence of HPF6 (1 equiv.), 1:1 (K a). Fill in for each entry.
assay: 1H NMR titration chloride binding studies; conditions: protonated perenosin, TBA-Cl, DMSO-d6/0.5% H2O, 298 K, 1:1 binding model

Solved entries:
CCCCCc1cc(/N=C/c2[nH]c3ccccc3c2C)c2[nH]ccc2c1 157 M⁻¹
CCCCCc1cc(/N=C/c2[nH]c(C)cc2C)c2[nH]ccc2c1 605 M⁻¹
CCCCCc1cc2cc(C)cc(/N=C/c3[nH]c(C)c(CCCCC)c3C)c2[nH]1 78300 M⁻¹
CCCCCc1cc2cc(C)cc(/N=C/c3[nH]c(C)cc3C)c2[nH]1 2450 M⁻¹
CCCCCc1cc2cc(C)cc(/N=C/c3[nH]c4ccccc4c3C)c2[nH]1 142 M⁻¹
CCCCCc1cc2cc(C(F)(F)F)cc(/N=C/c3[nH]c(C)cc3C)c2[nH]1 3440 M⁻¹

Hey, can you go through the list below and give me Association constant of Cl^− in the presence of HPF6 (1 equiv.), 1:1 (K a) for every item?
1. CCCc1cc2cc(C)cc(/N=C/c3[nH]c(C)cc3C)c2[nH]1
2. CCCCCc1c(C)[nH]c(/C=N/c2cc(C)cc3cc[nH]c23)c1C

["3440 M⁻¹", "2610 M⁻¹"]

* * *

assay: pKa by UV spectrophotometric titration in POPC vesicles; assay type: physicochemical; conditions: apparent pKa in presence of POPC lipid bilayer, NaCl 500 mM, phosphate 5 mM
assayEndpoint: pK a (mem)

Hey, can you go through the list below and give me pK a (mem) for every item?
1. CCCCCc1cc2cc(C)cc(/N=C/c3[nH]c4ccccc4c3C)c2[nH]1 [Perenosin 8]
2. CCCCCc1cc2cc(C)cc(/N=C/c3[nH]c(C)cc3C)c2[nH]1 [Perenosin 2]
3. CCCCCc1cc(/N=C/c2[nH]c3ccccc3c2C)c2[nH]ccc2c1 [Perenosin 7]
4. CCCCCc1cc(/N=C/c2[nH]c(C)cc2C)c2[nH]ccc2c1 [Perenosin 1d]

1. 5.62
2. 5.85
3. 5.07
4. 5.42

Hey, can you go through the list below and give me pK a (mem) for every item?
1. CCCCCc1c(C)[nH]c(/C=N/c2cc(C)cc3cc[nH]c23)c1C [Perenosin 5]
2. CCCc1cc2cc(C)cc(/N=C/c3[nH]c(C)cc3C)c2[nH]1 [Perenosin 4]

5.81
6.12

* * *

Record form. Attribute: Association constant of Cl^− in the presence of HPF6 (1 equiv.), 2:1, K 21. Fill in for each entry.
test: 1H NMR titration chloride binding studies; details: protonated perenosin, TBA-Cl, DMSO-d6/0.5% H2O, 298 K, 2:1 binding model
One number for each entry, in M⁻¹.

Solved entries:
CCCCCc1cc2cc(C(F)(F)F)cc(/N=C/c3[nH]c(C)cc3C)c2[nH]1 2070
CCCCCc1cc2cc(C)cc(/N=C/c3[nH]c(C)c(CCCCC)c3C)c2[nH]1 158
CCCCCc1cc(/N=C/c2[nH]c(C)cc2C)c2[nH]ccc2c1 190
CCCCCc1c(C)[nH]c(/C=N/c2cc(C)cc3cc[nH]c23)c1C 14
CCCc1cc2cc(C)cc(/N=C/c3[nH]c(C)cc3C)c2[nH]1 306
CCCCCc1cc2cc(C)cc(/N=C/c3[nH]c(C)cc3C)c2[nH]1 473
CCCCCc1cc2cc(C)cc(/N=C/c3[nH]c4ccccc4c3C)c2[nH]1 193

As a next step, examine the compound that follows.
// returns reported Association constant of Cl^− in the presence of HPF6 (1 equiv.), 2:1, K 21 for input CCCCCc1cc(/N=C/c2[nH]c3ccccc3c2C)c2[nH]ccc2c1 507

* * *

Test system: MDA-MB-231 cells
Test: MTT cell viability assay
Assay type: cell-based
Settings: Homo sapiens; MDA-MB-231, 72 h exposure, error from three repeats in brackets; read-out: IC50 (72 h)
Description: Herein, we carried out further in vitro studies at the University of Barcelona for the full library of perenosins. Single dose screening for cell viability using the methylthiazoletetrazolium (MTT) colorimetric assay over five different cell lines (cancer cells MCF-7, MDA-MB-231, A549 and SW620, and non-cancerous human cells MCF-10A) was conducted. […] Cell viability was evaluated using the methylthiazoletetrazolium (MTT) colorimetric assay. […]
assayEndpoint: IC50 (µM)
Give bare numbers, in µM.

Hey, can you go through the list below and give me IC50 for every item?
1. CCCCCc1cc2cc(C)cc(/N=C/c3[nH]c4ccccc4c3C)c2[nH]1
2. CCCCCc1cc2cc(C(F)(F)F)cc(/N=C/c3[nH]c(C)cc3C)c2[nH]1

1. 38
2. 9.5

Hey, can you go through the list below and give me IC50 for every item?
1. COc1cc(/N=C/c2[nH]c(C)cc2C)c2[nH]ccc2c1
2. Cc1cc(/N=C/c2[nH]c(C)cc2C)c2[nH]ccc2c1
3. CCCCCc1cc(/N=C/c2[nH]c3ccccc3c2C)c2[nH]ccc2c1
4. Cc1cc(C)c(/C=N/c2cccc3cc[nH]c23)[nH]1
5. CCCCCc1c(C)[nH]c(/C=N/c2cc(C)cc3cc[nH]c23)c1C
6. CCCc1cc2cc(C)cc(/N=C/c3[nH]c(C)cc3C)c2[nH]1

[32.7, 20.4, 11, 24.4, 14, 9.2]

Hey, can you go through the list below and give me IC50 for every item?
1. CCCCCc1cc2cc(C)cc(/N=C/c3[nH]c(C)c(CCCCC)c3C)c2[nH]1
2. CCCCCc1cc2cc(C)cc(/N=C/c3[nH]c(C)cc3C)c2[nH]1

1. 4.2
2. 11.3

Hey, can you go through the list below and give me IC50 for every item?
1. CCCCCc1cc(/N=C/c2[nH]c(C)cc2C)c2[nH]ccc2c1
2. Cc1cc(C)c(/C=N/c2cc(C(F)(F)F)cc3cc[nH]c23)[nH]1

16.6
22.1
